Molecular target: full length human recombinant glucocorticoid receptor (Homo sapiens, UniProt P04150)
Construct: It contains some partially purified full length human recombinant glucocorticoid receptor
Experiment: Glucocorticoid Receptor Binding Assay (Glucocorticoid Receptor Competitor Assay far red kit, fluorescence polarization)
Conditions: competition with fluorescent GR ligand Fluormone GS Far Red, 3 hours at 22° C., pH 7.4; Ki calculated from IC50 by Cheng-Prusoff
Protocol: Glucocorticoid Receptor Binding Assay The ability of the substances to bind to the glucocorticoid receptor was determined with the help of a commercial Glucocorticoid Receptor Competitor Assay far red kit provided by Panvera/Invitrogen (PV4302). This kit is used as provided by the supplier. […]
MEASUREMENT_KIND: Ki
Answer format: value, then unit.

Known value: full length human recombinant glucocorticoid receptor (Homo sapiens, UniProt P04150) Ki of the compound COc1cc(-c2ccc([C@H](C)[C@](O)(c3ccc4c(c3)N(C)C(=O)CO4)C(F)(F)F)c(Cl)c2)ccc1C(=O)O (relative stereo) equals 6.5 nM

Known value: full length human recombinant glucocorticoid receptor (Homo sapiens, UniProt P04150) Ki of the compound COc1cc(-c2ccc([C@@H](C)[C@@](O)(c3ccc4oc(=O)n(C)c4c3)C(F)(F)F)c(Cl)c2)ccc1C(=O)O (stereo in doubt) equals 3 nM

Known value: full length human recombinant glucocorticoid receptor (Homo sapiens, UniProt P04150) Ki of the compound C[C@H](c1ccc(Oc2ccc(F)c(C(=O)O)c2)cc1Cl)[C@@](O)(c1ccc2c(c1)N(C)C(=O)CO2)C(F)(F)F (racemic) equals 0.3 nM

Known value: full length human recombinant glucocorticoid receptor (Homo sapiens, UniProt P04150) Ki of the compound COC(=O)c1ccc(-c2ccc([C@@H](C)[C@@](O)(c3ccc4c(c3)NC(=O)CO4)C(F)(F)F)c(Cl)c2)cc1F (relative stereo) equals 28.1 nM

Known value: full length human recombinant glucocorticoid receptor (Homo sapiens, UniProt P04150) Ki of the compound Cc1cc([C@@](O)([C@@H](C)c2ccc(Oc3ccc(C(=O)O)c(Cl)c3)cc2Cl)C(F)(F)F)cc(C)c1C#N (relative stereo) equals 2.5 nM

Known value: full length human recombinant glucocorticoid receptor (Homo sapiens, UniProt P04150) Ki of the compound COc1ccc(Cl)c([C@@H](C)[C@@](O)(c2ccc3oc(=O)n(C)c3c2)C(F)(F)F)c1 (stereo in doubt) equals 0.8 nM

---

Target: full length human recombinant glucocorticoid receptor (Homo sapiens, UniProt P04150)
Construct: It contains some partially purified full length human recombinant glucocorticoid receptor; purchased Panvera/Invitrogen PV4302
Assay: Glucocorticoid Receptor Binding Assay (Glucocorticoid Receptor Competitor Assay far red kit, fluorescence polarization)
Details: competition with fluorescent GR ligand Fluormone GS Far Red, 3 hours at 22° C., pH 7.4; Ki calculated from IC50 by Cheng-Prusoff
Experimental: Glucocorticoid Receptor Binding Assay The ability of the substances to bind to the glucocorticoid receptor was determined with the help of a commercial Glucocorticoid Receptor Competitor Assay far red kit provided by Panvera/Invitrogen (PV4302). This kit is used as provided by the supplier. […]
pKi: −log10 of the molar value.
Quick rule: pKi of at least 8 means true (1), below that means false (0).

State whether the measured pKi reaches 8, counting equality as reaching it, for CCN1C(=O)COc2ccc([C@](O)([C@H](C)c3ccc(-c4ccc(C(=O)O)c(Cl)c4)cc3Cl)C(F)(F)F)cc21 (racemic) false (0)

State whether the measured pKi reaches 8, counting equality as reaching it, for COC(=O)c1cnc(Oc2ccc([C@H](C)[C@](O)(c3cc(C)c(C#N)c(C)c3)C(F)(F)F)c(Cl)c2)c(Cl)c1 (stereo in doubt) true (1)

State whether the measured pKi reaches 8, counting equality as reaching it, for CCN1C(=O)COc2ccc([C@](O)([C@H](C)c3ccc(-c4ccc(Cl)c(C(=O)O)c4)cc3Cl)C(F)(F)F)cc21 (relative stereo) false (0)

State whether the measured pKi reaches 8, counting equality as reaching it, for COC(=O)c1ccc(-c2ccc([C@@H](C)[C@@](O)(c3ccc4oc(=O)n(C)c4c3)C(F)(F)F)c(Cl)c2)nc1 (stereo in doubt) true (1)

State whether the measured pKi reaches 8, counting equality as reaching it, for C[C@H](c1ccc(Oc2nc(C(F)(F)F)ccc2C(=O)O)cc1Cl)[C@@](O)(c1ccc2c(c1)n(C)c(=O)n2C)C(F)(F)F (stereo in doubt) false (0)

State whether the measured pKi reaches 8, counting equality as reaching it, for COC(=O)c1ccc(-c2ccc([C@H](C)[C@](O)(c3ccc4c(c3)N(C)C(=O)CO4)C(F)(F)F)c(Cl)c2)cc1Cl (relative stereo) true (1)

State whether the measured pKi reaches 8, counting equality as reaching it, for COc1ccc([C@@H](C)[C@@](O)(c2ccc3oc(=O)n(C)c3c2)C(F)(F)F)c(Cl)c1 (stereo in doubt) true (1)

State whether the measured pKi reaches 8, counting equality as reaching it, for COC(=O)c1ccc(-c2ccc([C@H](C)[C@](O)(c3ccc4c(c3)N(C)C(=O)CO4)C(F)(F)F)c(Cl)c2)c(F)c1 (relative stereo) false (0)

State whether the measured pKi reaches 8, counting equality as reaching it, for COC(=O)c1cnc(Oc2ccc([C@@H](C)[C@@](O)(c3ccc4c(c3)N(C)C(=O)CO4)C(F)(F)F)c(Cl)c2)cn1 (racemic) true (1)

---

target: full length human recombinant glucocorticoid receptor (Homo sapiens); construct: It contains some partially purified full length human recombinant glucocorticoid receptor; experiment: Glucocorticoid Receptor Binding Assay (Glucocorticoid Receptor Competitor Assay far red kit, fluorescence polarization); conditions: competition with fluorescent GR ligand Fluormone GS Far Red, 3 hours at 22° C., pH 7.4; Ki calculated from IC50 by Cheng-Prusoff
MEASUREMENT_KIND: pKi
pKi field: float, defined as -log10 of concentration (mol/L).

Noted for C[C@H](c1ccc(Oc2ccc(C(=O)O)c(F)c2)cc1Cl)[C@@](O)(c1ccc2c(c1)OCC(=O)N2C)C(F)(F)F (stereo in doubt) : its pKi reads 8.57

Noted for C[C@H](c1ccc(-c2ccc(F)c(C(=O)O)c2)cc1Cl)[C@@](O)(c1ccc(C#N)cc1)C(F)(F)F (stereo in doubt) : its pKi reads 7.73

Noted for C[C@H](c1ccc(C(=O)NCC(=O)O)cc1Cl)[C@@](O)(c1ccc2oc(=O)n(C)c2c1)C(F)(F)F (stereo in doubt) : its pKi reads 7.03

Noted for CCOC(=O)C(C)(C)Oc1ccc([C@@H](C)[C@@](O)(c2ccc3oc(=O)n(C)c3c2)C(F)(F)F)c(Cl)c1 (stereo in doubt) : its pKi reads 8.41

Noted for CCOC(=O)COc1cc(-c2ccc([C@H](C)[C@](O)(c3cc(F)c4c(c3)N(C)C(=O)CO4)C(F)(F)F)c(Cl)c2)ccc1F (relative stereo) : its pKi reads 8.70

Noted for C[C@H](c1ccc(Oc2ccc(F)c(C(=O)O)c2)cc1Cl)[C@@](O)(c1ccc2c(c1)OCC(=O)N2C)C(F)(F)F (relative stereo) : its pKi reads 8.51

---

Target: full length human recombinant glucocorticoid receptor (Homo sapiens)
Construct: It contains some partially purified full length human recombinant glucocorticoid receptor
Sequence (P04150 1-777): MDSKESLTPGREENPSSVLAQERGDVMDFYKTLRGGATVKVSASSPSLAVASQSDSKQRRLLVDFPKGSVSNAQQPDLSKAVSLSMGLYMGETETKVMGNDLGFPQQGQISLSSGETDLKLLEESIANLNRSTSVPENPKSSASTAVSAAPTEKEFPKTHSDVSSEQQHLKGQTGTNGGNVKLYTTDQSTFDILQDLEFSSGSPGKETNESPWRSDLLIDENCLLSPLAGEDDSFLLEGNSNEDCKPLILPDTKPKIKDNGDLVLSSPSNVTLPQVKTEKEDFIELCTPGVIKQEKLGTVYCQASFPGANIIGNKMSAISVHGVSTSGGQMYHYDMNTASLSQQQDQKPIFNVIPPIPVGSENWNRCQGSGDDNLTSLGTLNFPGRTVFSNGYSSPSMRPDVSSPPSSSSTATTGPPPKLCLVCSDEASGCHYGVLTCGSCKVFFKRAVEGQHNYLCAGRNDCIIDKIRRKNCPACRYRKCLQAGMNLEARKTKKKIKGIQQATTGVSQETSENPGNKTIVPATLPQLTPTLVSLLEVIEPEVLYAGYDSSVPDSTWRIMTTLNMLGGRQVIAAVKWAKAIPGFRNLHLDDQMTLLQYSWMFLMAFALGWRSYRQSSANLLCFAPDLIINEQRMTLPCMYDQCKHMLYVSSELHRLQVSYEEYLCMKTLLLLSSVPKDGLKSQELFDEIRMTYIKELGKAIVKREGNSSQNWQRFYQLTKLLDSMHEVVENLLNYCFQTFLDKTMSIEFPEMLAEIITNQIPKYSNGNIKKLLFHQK
Experiment: Glucocorticoid Receptor Binding Assay (Glucocorticoid Receptor Competitor Assay far red kit, fluorescence polarization)
Conditions: competition with fluorescent GR ligand Fluormone GS Far Red, 3 hours at 22° C., pH 7.4; Ki calculated from IC50 by Cheng-Prusoff
Hi there, I'd appreciate the recorded pKi for every entry that follows.
pKi field: float, defined as -log10 of concentration (mol/L).

Noted for C[C@@H](c1ccc(-c2ccc(C(=O)O)cc2)cc1Cl)[C@](O)(c1ccc2c(c1)N(C)C(=O)CO2)C(F)(F)F (stereo in doubt) : its pKi reads 8.54

Noted for COC(=O)c1ccc(-c2ccc([C@@H](C)[C@@](O)(c3ccc4oc(=O)n(C)c4c3)C(F)(F)F)c(C(F)(F)F)c2)cc1F (relative stereo) : its pKi reads 8.77

Noted for C[C@H](c1ccc(-c2ccc(F)c(C(=O)O)c2)cc1Cl)[C@@](O)(c1ccc2c(c1)oc(=O)n2C)C(F)(F)F (relative stereo) : its pKi reads 6.94

Noted for COC(=O)c1ccc(-c2ccc([C@@H](C)[C@@](O)(c3cccc4c3OCC(=O)N4C)C(F)(F)F)c(Cl)c2)cc1F (relative stereo) : its pKi reads 7.18

Noted for C[C@H](c1ccc(Oc2ccc(Cl)c(C(=O)O)c2)cc1Cl)[C@@](O)(c1ccc2c(c1)N(C)C(=O)CO2)C(F)(F)F (racemic) : its pKi reads 9.52

Noted for COc1cc(-c2ccc([C@@H](C)[C@@](O)(c3ccc4c(c3)n(C)c(=O)n4C)C(F)(F)F)c(Cl)c2)ccc1C(=O)O (stereo in doubt) : its pKi reads 7.87

Reference for the values: patent US8450313B2
